Hello, the source for this data is patent US12172993B2, in case you need it.

Tested on: human plasma-proteins
Decision: Percentage unbound (%) >= 7% yields True, all other cases yield False.

Study these solved cases before continuing.
smiles_str=Cc1nc(Nc2ncc(C(=O)Nc3c(C)nn(C)c3C)s2)cc(N2CCN(CCO)CC2)n1 test_system="human plasma-proteins" assigned_class=False
smiles_str=Cc1nc(Nc2ncc(C(=O)Nc3c(C)noc3C)s2)cc(N2CCN(CCO)CC2)n1 test_system="human plasma-proteins" assigned_class=False
smiles_str=Cc1nc(Nc2ncc(C(=O)Nc3c(C)cncc3Cl)s2)cc(N2CCN(CCO)CC2)n1 test_system="human plasma-proteins" assigned_class=False

Kindly review the next compound as well.
Task: Identify whether the reported Percentage unbound (%) of the following compound is 7% or greater: Cc1nc(Nc2ncc(C(=O)Nc3ncccc3C)s2)cc(N2CCN(CCO)CC2)n1
Result: True
